Biological target: C5aR (Homo sapiens (Human), UniProt P21730)
Sequence (P21730 whole entry): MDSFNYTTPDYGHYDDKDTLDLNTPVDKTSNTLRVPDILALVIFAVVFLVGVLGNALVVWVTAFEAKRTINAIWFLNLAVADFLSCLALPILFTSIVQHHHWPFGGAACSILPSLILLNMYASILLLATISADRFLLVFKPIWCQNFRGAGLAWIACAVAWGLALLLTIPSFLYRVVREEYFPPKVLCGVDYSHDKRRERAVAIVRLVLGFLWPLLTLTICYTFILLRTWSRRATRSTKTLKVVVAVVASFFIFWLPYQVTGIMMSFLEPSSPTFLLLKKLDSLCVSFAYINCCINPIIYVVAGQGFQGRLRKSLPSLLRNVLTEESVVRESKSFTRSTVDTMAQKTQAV
Test: Chemotaxis assay (inhibition of C5aR mediated migration towards C5a)
Conditions: inhibition in the chemotaxis assay (Example 14 B.3); U937 or neutrophil cells, 0.03 nM C5a
pIC50: −log10 of the molar value.
Property: pIC50; scope: individual compounds

Compound: CCc1cccc(CC)c1-n1nc2c(c1-c1ccc(F)c3[nH]ccc13)CN(Cc1ccccc1)C2(C)C [Compound 1.021]
Assayed Target: C5aR (Homo sapiens (Human), UniProt P21730)
pIC50: > 8.30

Compound: Cc1cccc(C)c1-n1nc2c(c1-c1ccc3[nH]ccc3c1)CN(S(=O)(=O)c1ccc(C(C)(C)C)cc1)C2 [Compound 1.063]
Assayed Target: C5aR (Homo sapiens (Human), UniProt P21730)
pIC50: ≤ 6.30

Compound: Cc1cccc(C)c1-n1nc2c(c1-c1ccc3[nH]ccc3c1)CN(CC(C)(C)C)C2(C)C [Compound 1.052]
Assayed Target: C5aR (Homo sapiens (Human), UniProt P21730)
pIC50: 7.30 to 8.30

Form field pIC50, entry CCc1cccc(CC)c1-n1nc2c(c1-c1ccc(Cl)c3[nH]ccc13)CN(Cc1ccc(C(F)(F)F)cc1C(F)(F)F)C2(C)C [Compound 1.024] : > 8.30

* * *

Target: C5aR (Homo sapiens (Human), UniProt P21730)
Test: Chemotaxis assay (inhibition of C5aR mediated migration towards C5a)
Conditions: inhibition in the chemotaxis assay (Example 14 B.3); U937 or neutrophil cells, 0.03 nM C5a
Value Kind: IC50

Illustrative cases are given below, each with its answer.
Smiles Representation: CCc1cccc(CC)c1-n1nc2c(c1-c1ccc(F)c3[nH]ccc13)CN(Cc1ccc(F)cc1)C2(C)C
IC50: < 5 nM
--
Smiles Representation: CCc1cccc(CC)c1-n1nc2c(c1-c1ccc3[nH]ccc3c1)CN(Cc1cc(Cl)ccc1Cl)C2(C)C
IC50: 5 to 50 nM
--
Smiles Representation: CCc1cccc(CC)c1-n1nc2c(c1-c1cccc3[nH]cc(C)c13)CN(Cc1ccc(C(F)(F)F)cc1C(F)(F)F)C2(C)C
IC50: 5 to 50 nM

Form field IC50, entry CCc1cccc(CC)c1-n1nc2c(c1-c1ccc(F)c3[nH]ccc13)CN(Cc1cc(C(F)(F)F)cc(C(F)(F)F)c1)C2(C)C : 5 to 50 nM
